Can you tell me self-cleavage for the items I'm about to list?
B1: CPEB3 Ribozyme (parent)
chain: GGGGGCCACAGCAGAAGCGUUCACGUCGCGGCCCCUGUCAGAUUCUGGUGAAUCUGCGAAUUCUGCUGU

variants of: B1; experiment: self-cleavage, relative activity (ratio to wild type); higher = more cleavage; co-transcriptional
Give bare numbers.

Would you please look over these solved cases?
[[record]]
variant_notation = "A8C G37U"
reported_value = 0.257

[[record]]
variant_notation = "G14A U26A"
reported_value = 0.346

[[record]]
variant_notation = "C12U A60C"
reported_value = 0.299

[[record]]
variant_notation = "G19U G28U"
reported_value = 0.116

[[record]]
variant_notation = "U43A U49G"
reported_value = 0.955

[[record]]
variant_notation = "A40C A51U"
reported_value = 0.324


// each variant listed below needs its self-cleavage
1. G25A G58U
2. A15U A51C
3. G19A C34U

Result:
1: 0.218; 2: 0.79; 3: 0.181

Give self-cleavage for each listed item.
1. U36A U62A
2. G48C A52G
3. G2A U55A
4. C32A C54A
5. A13U G58A
6. G19U C22G
7. G11C G48A

Result:
1. 0.218
2. 1.04
3. 0.109
4. 0.328
5. 0.758
6. 0.164
7. 0.921

For each of the variants below, state self-cleavage.
1. A15G C34U
2. G37C G41U
3. G19C U61G
4. C6G C18G
5. C35A U62G
6. G50U U67C

Result:
[1.01, 0.201, 0.116, 0.062, 0.21, 1.01]
